Reference source: ChEMBL document CHEMBL1201862

Listing of entries alongside the reported GI50.
Tested on: NCI/ADR-RES
Experiment: NCI tumour cell line growth inhibition, 48 h
Calls of active or inactive are those of the source. Rule as the data show it: active = GI50 up to about 1.1 µM and inactive = higher.

>>> readout_value("CC(C)C1=C2CCC3(C)C(CCC4C5C6OCC5(CCC6(C)C)CCC43C)C2(C)CC1 (configuration not stated)")
"18.9 µM (inactive)"
>>> readout_value("C=C1CCCC(C)(C)C1CCC1(C)CCC(C(C)C(=O)OC)OO1 (configuration not stated)")
"7.08 µM (inactive)"
>>> readout_value("C1CCC(OC2CSC2)OC1 (configuration not stated)")
"> 100 µM (inactive)"

GET /value?item= CCOC(=O)N(CC)c1c(C(F)(F)F)cc(-c2ccccc2)[nH]c1=O &field=GI50 returns 24.7 µM (inactive)

GET /value?item= COc1cc2c3cc1Oc1c(OC)c(OC)cc4c1C(Cc1ccc(cc1)Oc1cc(ccc1O)CC3N(C)CC2)N(C)CC4 (configuration not stated) &field=GI50 returns 19.3 µM (inactive)

GET /value?item= O=c1c2ccccc2[se]n1-c1cccnc1 &field=GI50 returns 33.5 µM (inactive)

GET /value?item= CN(C)CCNC(=O)c1cccc2nc3c(nc12)-c1ccccc1C3=O &field=GI50 returns 12.4 µM (inactive)

GET /value?item= COC(=O)[C@]12CC[C@H]3CN(C(=O)OCc4ccccc4)[C@H]([C@H]31)[C@H](C(=O)OCC[Si](C)(C)C)N2S(=O)(=O)c1ccc(C)cc1 &field=GI50 returns > 100 µM (inactive)

GET /value?item= C=C(Br)C/N=C/N(C)C &field=GI50 returns > 100 µM (inactive)

GET /value?item= O=c1[nH]cc(/N=C/c2cc(Cl)cc(Cl)c2O)c(=O)[nH]1 &field=GI50 returns 21.8 µM (inactive)

GET /value?item= OCCSCC(O)Cn1cnc2c(O)nc(Nc3ccccc3)nc21 (configuration not stated) &field=GI50 returns > 100 µM (inactive)

GET /value?item= NNC(=O)c1c(-c2cccnc2)cnc2ccccc12 &field=GI50 returns > 100 µM (inactive)
